TESTED_TARGET: JAK 2 (Homo sapiens, UniProt O60674)
Sequence (O60674 whole entry): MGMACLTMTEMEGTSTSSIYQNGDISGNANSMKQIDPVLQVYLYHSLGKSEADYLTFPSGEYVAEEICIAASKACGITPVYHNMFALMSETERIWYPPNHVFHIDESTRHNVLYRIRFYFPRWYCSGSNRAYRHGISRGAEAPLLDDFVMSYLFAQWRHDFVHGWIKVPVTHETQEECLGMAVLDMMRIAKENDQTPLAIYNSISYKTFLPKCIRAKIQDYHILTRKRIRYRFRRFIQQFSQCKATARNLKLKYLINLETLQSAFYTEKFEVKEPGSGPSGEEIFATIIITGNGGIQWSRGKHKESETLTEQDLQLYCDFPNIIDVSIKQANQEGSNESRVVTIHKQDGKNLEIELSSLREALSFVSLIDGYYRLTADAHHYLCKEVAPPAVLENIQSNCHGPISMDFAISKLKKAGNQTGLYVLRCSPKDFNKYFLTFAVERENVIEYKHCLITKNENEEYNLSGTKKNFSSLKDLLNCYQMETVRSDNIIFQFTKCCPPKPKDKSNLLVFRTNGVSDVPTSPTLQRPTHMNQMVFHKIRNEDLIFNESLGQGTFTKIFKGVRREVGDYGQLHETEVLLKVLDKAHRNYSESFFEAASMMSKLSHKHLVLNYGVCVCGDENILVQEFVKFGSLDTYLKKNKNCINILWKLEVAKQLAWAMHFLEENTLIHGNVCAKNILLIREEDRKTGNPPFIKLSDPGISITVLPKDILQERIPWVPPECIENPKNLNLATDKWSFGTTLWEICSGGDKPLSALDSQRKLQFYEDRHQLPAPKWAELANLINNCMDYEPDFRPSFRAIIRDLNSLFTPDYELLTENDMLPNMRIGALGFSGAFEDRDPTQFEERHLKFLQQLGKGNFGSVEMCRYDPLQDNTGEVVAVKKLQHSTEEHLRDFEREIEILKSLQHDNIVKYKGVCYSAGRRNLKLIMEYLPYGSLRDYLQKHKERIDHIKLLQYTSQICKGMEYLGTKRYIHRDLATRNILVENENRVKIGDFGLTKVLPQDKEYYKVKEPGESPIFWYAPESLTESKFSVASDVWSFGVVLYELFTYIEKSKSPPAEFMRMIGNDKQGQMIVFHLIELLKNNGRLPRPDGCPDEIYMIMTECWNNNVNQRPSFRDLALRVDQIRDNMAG
EXPERIMENT_NOTES: Biochemical potency on JAK2, TR-FRET LANCE Ultra kinase assay (examples 1-99)
CONDITIONS_USED: ATP at Km (0.7 μM), read-out: JAK2 inhibitory activity (pIC50 class) (converted)
OBSERVABLE: IC50

> print(dat)
                      smiles.representation     result
1  N[C@H]1C[C@@H](NC(=O)c2nn(-c3cc(Cl)ccc3OC(F)F)c3cc(-c4cnn5cccnc45)ncc23)C1  > 50.1 nM
2  CSc1ccc(Cl)cc1-n1nc(C)c2cnc(-c3cnn4cccnc34)cc21  ≤ 5.01 nM

For every listed record, write down its IC50.
1. CNC(=O)CNc1nc(-c2cnn3cccnc23)cc2c1cnn2-c1cc(Cl)ccc1OC
2. Cc1ccc(OC(F)F)c(-n2nc(C)c3cnc(-c4cnn5cccnc45)cc32)c1
3. Cc1nn(-c2cc(Cl)ccc2CO)c2cc(-c3cnn4cccnc34)ncc12
4. NC1CN(Cc2nn(-c3cc(Cl)ccc3OC(F)F)c3cc(-c4cnn5cccnc45)ncc23)C1
5. COc1ccc(S(C)(=O)=O)cc1-n1nc(C(=O)NCCN(C)C)c2cnc(-c3cnn4cccnc34)cc21

stdout:
["5.01 to 50.1 nM", "5.01 to 50.1 nM", "5.01 to 50.1 nM", "5.01 to 50.1 nM", "5.01 to 50.1 nM"]

====

Kindly state IC50 for each of the entries shown.
TESTED_TARGET: JAK 3 (Homo sapiens)
Sequence (P52333 whole entry): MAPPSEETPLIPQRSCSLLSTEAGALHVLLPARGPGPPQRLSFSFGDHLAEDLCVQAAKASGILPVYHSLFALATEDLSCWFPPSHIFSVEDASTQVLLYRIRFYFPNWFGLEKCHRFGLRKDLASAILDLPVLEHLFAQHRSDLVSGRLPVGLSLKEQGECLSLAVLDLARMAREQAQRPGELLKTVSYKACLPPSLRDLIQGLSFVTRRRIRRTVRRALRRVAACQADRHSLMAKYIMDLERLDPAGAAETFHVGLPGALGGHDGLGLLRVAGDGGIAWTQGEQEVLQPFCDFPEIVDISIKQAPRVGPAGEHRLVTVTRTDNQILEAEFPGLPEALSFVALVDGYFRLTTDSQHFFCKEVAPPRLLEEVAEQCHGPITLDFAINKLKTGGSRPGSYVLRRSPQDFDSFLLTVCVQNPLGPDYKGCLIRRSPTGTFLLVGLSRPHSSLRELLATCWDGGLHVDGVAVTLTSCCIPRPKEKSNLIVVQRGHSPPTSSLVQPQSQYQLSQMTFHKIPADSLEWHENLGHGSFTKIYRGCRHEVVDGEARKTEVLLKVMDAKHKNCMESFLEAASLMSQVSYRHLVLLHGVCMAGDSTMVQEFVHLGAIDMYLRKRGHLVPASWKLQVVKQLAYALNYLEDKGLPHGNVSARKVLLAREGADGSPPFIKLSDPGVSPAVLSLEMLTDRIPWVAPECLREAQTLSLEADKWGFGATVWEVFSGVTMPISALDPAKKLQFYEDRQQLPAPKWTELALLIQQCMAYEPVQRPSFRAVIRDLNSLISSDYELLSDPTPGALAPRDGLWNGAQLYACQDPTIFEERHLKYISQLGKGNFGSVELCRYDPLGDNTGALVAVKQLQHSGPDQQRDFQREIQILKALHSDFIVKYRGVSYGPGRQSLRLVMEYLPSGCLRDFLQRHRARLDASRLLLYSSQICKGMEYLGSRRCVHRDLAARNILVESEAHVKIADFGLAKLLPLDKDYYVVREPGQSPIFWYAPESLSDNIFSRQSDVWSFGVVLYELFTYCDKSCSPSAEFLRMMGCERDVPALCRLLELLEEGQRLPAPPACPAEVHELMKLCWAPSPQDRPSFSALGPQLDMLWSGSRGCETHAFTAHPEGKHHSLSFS
EXPERIMENT_NOTES: Biochemical potency on JAK3, TR-FRET LANCE Ultra kinase assay (examples 1-99)
CONDITIONS_USED: ATP at Km (0.2 μM), read-out: JAK3 inhibitory activity (pIC50 class) (converted)

> print(dat)
                                   molecule         tested.target           result
1  CSc1ccc(OC(F)F)c(-n2nc(C(=O)NCCCN(C)C)c3cnc(-c4cnn5cccnc45)cc32)c1  JAK 3 (Homo sapiens)        ≤ 5.01 nM
2  CN(C)[C@H]1C[C@@H](NC(=O)c2nn(-c3cc(Cl)ccc3OC(F)F)c3cc(-c4cnn5cccnc45)ncc23)C1  JAK 3 (Homo sapiens)  5.01 to 50.1 nM
3  COc1ccc(Cl)cc1-n1ncc2c(N)nc(-c3cnn4cccnc34)cc21  JAK 3 (Homo sapiens)  5.01 to 50.1 nM

Need IC50 for each of these molecules.
1. CNS(=O)(=O)c1ccc(OC)c(-n2nc(C)c3cnc(-c4cnn5cccnc45)cc32)c1
2. N[C@H]1C[C@@H](NC(=O)c2nn(-c3cc(Cl)ccc3OC(F)F)c3cc(-c4cnn5cccnc45)ncc23)C1
3. Cc1nn(-c2cc(Cl)ccc2OC(F)F)c2cc(-c3cnn4cccnc34)ncc12
4. CC(=O)N1CCC(S(=O)(=O)c2ccc(OC(F)F)c(-n3nc(C)c4cnc(-c5cnn6cccnc56)cc43)c2)C1 (stereo not drawn)

stdout:
1. ≤ 5.01 nM
2. 5.01 to 50.1 nM
3. ≤ 5.01 nM
4. ≤ 5.01 nM

For each of the molecules below, state IC50.
1. COc1ccc(Cl)cc1-n1nc(N)c2cnc(-c3cnn4cccnc34)cc21
2. COc1ccc(Cl)cc1-n1nc(C(=O)N[C@H]2C[C@H](N)C2)c2cnc(-c3cnn4cccnc34)cc21

stdout:
["≤ 5.01 nM", "5.01 to 50.1 nM"]
